These entries and their values trace back to PubChem BioAssay (NCI).

tested on: HCC-2998 colon; assay: NCI-60 one-dose screen, 48 h; details: 10 µM unless noted
Compounds without any hit were thinned out: in the full panel of roughly 83,000, 20% have a hit. Activity calls are given as the source filed them. The calls were made as follows: active = growth percent below 10; inactive = the rest.
Your answer must be one of the following: active, inactive

Fill in: this test's call for `O=C1/C(=C/c2ccccc2)CN(C(=O)C(Cl)Cl)C/C1=C\c1ccccc1` is ___
active

Next record, please: `C=C[C@]1(C)C=C2CC[C@@H]3C(C)(C)C(=O)CC[C@@]3(C)[C@@H]2CC1`
inactive

Next record, please: `Nc1ncc(-c2ccc3ncnc(N4CCc5ccc(Cl)cc54)c3c2)cc1C(F)(F)F`
inactive

Next record, please: `Clc1ccc2c(c1)N(c1ncnc3ccc(-c4cnc5[nH]ccc5c4)cc13)CC2`
inactive

Next record, please: `O=C(N=Nc1c(O)[nH]c2ccccc12)Nc1ccccc1Cl`
inactive

Next record, please: `Nc1nc(CSc2n[nH]c(N)n2)nc(Nc2ccccc2)n1`
inactive

Next record, please: O=C(CN1C(=O)S/C(=C\C(Cl)=C\c2ccccc2)C1=O)NC1C=CS(=O)(=O)C1 (configuration not stated)
inactive

Next record, please: `O=C(N=Nc1c(O)[nH]c2ccccc12)Nc1ccc(Br)cc1`
inactive

Next record, please: `COC1=CC(c2ccc[nH]2)=N/C1=C\c1[nH]c(C)c(C(=O)Oc2ccccc2)c1C`
active

Next record, please: `O=C(NNC(=S)Nc1ccccc1)c1ccncc1`
inactive

Next record, please: COC(=O)c1[nH]nc(OC)c1C1(C(C#N)c2nc3ccccc3s2)CCCc2ccccc21 (configuration not stated)
inactive

Next record, please: `COc1cc(/C=C2\CCC/C(=C\c3cc(CN4CCCC4)c(O)c(OC)c3)C2=O)cc(CN2CCCC2)c1O`
inactive
